- Test system: primary human T-cells
- Test method notes: Proliferation assay after 5 days (CellTiter-Glo, CD3 stimulation; PBS counter screen)
- Type: cell-based
- Settings: primary human T-cells, CD3 stimulation, CellTiter-Glo after 5 days; EC50 of fitted sigmoidal curve; read-out: Tcell Proliferation CD3 EC50

{"Molecule": "COC(F)(c1nnc(-c2ccc3c(c2)N(Cc2ccc(OC(F)(F)F)cc2)C(=O)[C@@H](N)C[S+]3[O-])o1)C(F)(F)F (single isomer, unassigned; epimer b) [Example 426]", "EC50": "1.4 µM"}
{"Molecule": "CC(C)(C)c1nc(-c2cc3c(cc2F)[S+]([O-])C[C@H](N)C(=O)N3Cc2ccc(Cl)cc2)no1 (single isomer, unassigned; epimer a) [Example 340]", "EC50": "1.35 µM"}
{"Molecule": "CC(C)(C)c1nnc(-c2cc3c(cc2F)[S+]([O-])C[C@H](N)C(=O)N3Cc2ccc(OC(F)(F)F)cc2)o1 (stereo partly shown) [Example 62]", "EC50": "0.721 µM"}
{"Molecule": "CC(Nc1nnc(-c2cc3c(cc2F)S(=O)(=O)C[C@H](N)C(=O)N3Cc2ccc(Cl)cc2)o1)C1CC1(F)F (single isomer, unassigned) [Example 496]", "EC50": "1.15 µM"}
{"Molecule": "CC(C)(C)n1nnc(-c2cc3c(cc2F)[S+]([O-])C[C@H](N)C(=O)N3Cc2ccc(Cl)cc2)n1 (stereo partly shown) [Example 35]", "EC50": "1.24 µM"}
{"Molecule": "CC(C)(C)c1cn(-c2cc3c(cc2F)S(=O)(=O)C[C@H](N)C(=O)N3Cc2ccc(Cl)cc2)cn1 [Example 527]", "EC50": "1.28 µM"}
{"Molecule": "N[C@H]1C[S+]([O-])c2cc(F)c(-c3noc(N4CCOC(C(F)(F)F)C4)n3)cc2N(Cc2ccc(Cl)cc2)C1=O (single isomer, unassigned; epimer a) [Example 213]", "EC50": "1.39 µM"}
